The values you see were collected from patent US20220211678A1.

Assay: Plasma levels of (+)-α-dihydrotetrabenazine up to 7 hours after oral dosing of human volunteers (Example 1B)
Assay type: in vivo
Settings: 7.5 mg, 7.5 mg oral, 2 h, subject 1 (112 kg)
MEASUREMENT_NAME: concentration at 2 h (ng/mL)
Give just the number in ng/mL; leave the unit off.

query: What does the data say about its concentration at 2 h? Entry: COc1cc2c(cc1OC)[C@H]1C[C@@H](O)[C@H](CC(C)C)CN1CC2 [(+)-α-dihydrotetrabenazine]
result: 6.01

###

Experiment: Plasma levels of (+)-α-dihydrotetrabenazine up to 7 hours after oral dosing of human volunteers (Example 1B)
Format: in vivo
Conditions: 7.5 mg, 7.5 mg oral, 4 h, subject 1 (112 kg)
MEASUREMENT_NAME: concentration at 4 h (ng/mL)
Give just the number in ng/mL; leave the unit off.

query: What does the data say about its concentration at 4 h? Entry: COc1cc2c(cc1OC)[C@H]1C[C@@H](O)[C@H](CC(C)C)CN1CC2 [(+)-α-dihydrotetrabenazine]
result: 4.54

###

Assay: Plasma levels of (+)-α-dihydrotetrabenazine up to 7 hours after oral dosing of human volunteers (Example 1B)
Type: in vivo
Conditions: 7.5 mg, 7.5 mg oral, 4 h, subject 3 (76 kg)
MEASUREMENT_NAME: concentration at 4 h

query: What does the data say about its concentration at 4 h? Entry: COc1cc2c(cc1OC)[C@H]1C[C@@H](O)[C@H](CC(C)C)CN1CC2 [(+)-α-dihydrotetrabenazine]
result: 5.57 ng/mL

###

Assay: Plasma levels of (+)-α-dihydrotetrabenazine up to 7 hours after oral dosing of human volunteers (Example 1B)
Type: in vivo
Conditions: 7.5 mg, 7.5 mg oral, 4 h, subject 2 (76 kg)
MEASUREMENT_NAME: concentration at 4 h (ng/mL)
Give just the number in ng/mL; leave the unit off.

query: What does the data say about its concentration at 4 h? Entry: COc1cc2c(cc1OC)[C@H]1C[C@@H](O)[C@H](CC(C)C)CN1CC2 [(+)-α-dihydrotetrabenazine]
result: 4.54

###

Assay: Plasma levels of (+)-α-dihydrotetrabenazine up to 7 hours after oral dosing of human volunteers (Example 1B)
Assay type: in vivo
Conditions: 7.5 mg, 7.5 mg oral, 7 h, subject 2 (76 kg)
MEASUREMENT_NAME: concentration at 7 h (ng/mL)
Give just the number in ng/mL; leave the unit off.

query: What does the data say about its concentration at 7 h? Entry: COc1cc2c(cc1OC)[C@H]1C[C@@H](O)[C@H](CC(C)C)CN1CC2 [(+)-α-dihydrotetrabenazine]
result: 11.7

###

Assay: Plasma levels of (+)-α-dihydrotetrabenazine up to 7 hours after oral dosing of human volunteers (Example 1B)
Assay type: in vivo
Conditions: 7.5 mg, 7.5 mg oral, 2 h, subject 3 (76 kg)
MEASUREMENT_NAME: concentration at 2 h (ng/mL)
Give just the number in ng/mL; leave the unit off.

query: What does the data say about its concentration at 2 h? Entry: COc1cc2c(cc1OC)[C@H]1C[C@@H](O)[C@H](CC(C)C)CN1CC2 [(+)-α-dihydrotetrabenazine]
result: 7.92

###

Assay: Plasma levels of (+)-α-dihydrotetrabenazine up to 7 hours after oral dosing of human volunteers (Example 1B)
Type: in vivo
Conditions: 7.5 mg, 7.5 mg oral, 2 h, subject 2 (76 kg)
MEASUREMENT_NAME: concentration at 2 h (ng/mL)
Give just the number in ng/mL; leave the unit off.

query: What does the data say about its concentration at 2 h? Entry: COc1cc2c(cc1OC)[C@H]1C[C@@H](O)[C@H](CC(C)C)CN1CC2 [(+)-α-dihydrotetrabenazine]
result: 17.5
